Biological target: TNFα (Homo sapiens)
Sequence (P01375 77-233 limits assumed): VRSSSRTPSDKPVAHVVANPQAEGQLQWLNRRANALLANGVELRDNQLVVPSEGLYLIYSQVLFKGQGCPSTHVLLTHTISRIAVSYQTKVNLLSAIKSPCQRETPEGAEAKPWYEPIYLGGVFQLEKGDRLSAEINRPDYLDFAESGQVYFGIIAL
Test: HEK-Blue hTNFα reporter assay
Type: cell-based
Parameters: purchased R&D biosystem (R&D Systems) 210-TA-020/CF
Conditions: HEK-Blue hTNFα reporter cells; read-out: TNFα reporter, IC50
For each record, write down the corresponding pIC50.
Friendly reminder that pIC50 comes from taking -log10 of the concentration in mol/L.

In one line, give reported pIC50 of the entry CN1C(=O)c2cccc(OC(F)F)c2[C@H]2C[C@@H]1c1nc3ccc(-c4cnc([C@]5(N)C[C@@](C)(C#N)C5)c(F)c4)cc3n12 [Comp. Ex #8, reference compound] .
8.28

In one line, give reported pIC50 of the entry CN1C(=O)c2cccc(OC(F)F)c2[C@H]2C[C@@H]1c1nc3ccc(-c4cnc(C5(N)CCC5)nc4)cc3n12 [Comp. Ex #1, reference compound] .
8.32

In one line, give reported pIC50 of the entry CN1C(=O)c2cccc(OC(F)F)c2[C@H]2C[C@@H]1c1nn3ccc(-c4ccc(P(C)(C)=O)nc4)cc3c12 [Example 20] .
8.42
